These measurements were taken from patent US20240300940A1.

- Experiment description: Mouse plasma pharmacokinetics
- Conditions: BALB/c, mouse, in vivo, iv, 3 mg/kg
Experimental endpoint: Tmax (min)
// return numeric value only (unit: min, not printed)

The compound listed as CC1(C)C2CN(c3ccc4nc5ccc(N6CC7C(C6)C7(C)C)cc5[s+]c4c3)CC21 (stereo not shown) shows Tmax equal to 4.8

====

- Experiment description: Mouse plasma pharmacokinetics
- Conditions: BALB/c, mouse, in vivo, iv, 3 mg/kg
Experimental endpoint: AUC(0-t) (ng·h/mL)
// return numeric value only (unit: ng·h/mL, not printed)

The molecule listed as CC1(C)C2CN(c3ccc4nc5ccc(N6CC7C(C6)C7(C)C)cc5[s+]c4c3)CC21 (stereo not shown) shows AUC(0-t) equal to 2710

====

- Experiment description: Mouse plasma pharmacokinetics
- Conditions: BALB/c, mouse, in vivo, iv, 3 mg/kg
Experimental endpoint: clearance (mL/min/kg)
// return numeric value only (unit: mL/min/kg, not printed)

The compound listed as CC1(C)C2CN(c3ccc4nc5ccc(N6CC7C(C6)C7(C)C)cc5[s+]c4c3)CC21 (stereo not shown) shows clearance equal to 17

====

- Experiment description: Mouse plasma pharmacokinetics
- Conditions: BALB/c, mouse, in vivo, iv, 3 mg/kg
Experimental endpoint: Vd (L/kg)
// return numeric value only (unit: L/kg, not printed)

The molecule listed as CC1(C)C2CN(c3ccc4nc5ccc(N6CC7C(C6)C7(C)C)cc5[s+]c4c3)CC21 (stereo not shown) shows Vd equal to 7

====

- Test system: E. coli ATCC25922
- Experiment description: MIC assay, serial dilution
- Conditions: Escherichia coli, ATCC25922, E. coli ATCC25922
Experimental endpoint: MIC

The compound listed as CC(C)(C)c1cc([N+]2([O-])CCCC2)cc2[s+]c3cc(N4CCCC4)ccc3nc12 shows MIC equal to > 100 µg/mL

The compound listed as COC(=O)C1C2C(CN1c1ccc3nc4ccc(N5CC6C(C5C(=O)OC)C6(C)C)cc4[s+]c3c1)C2(C)C (stereo not shown) shows MIC equal to > 100 µg/mL

The compound listed as c1cc2nc3c(N4CCCNCC4)cc(N4CCCC4)cc3[s+]c2cc1N1CCCC1 shows MIC equal to 100 µg/mL

The compound listed as c1cc2nc3ccc(N4C5CCCC4CC5)cc3[s+]c2cc1N1C2CCCC1CC2 shows MIC equal to > 100 µg/mL

The compound listed as c1cc2nc3c(N4CCNCC4)cc(N4CCCC4)cc3[s+]c2cc1N1CCCC1 shows MIC equal to > 100 µg/mL

The compound listed as CC1(C)C2CN(c3ccc4nc5ccc(N6CC7C(C6C(=O)O)C7(C)C)cc5[s+]c4c3)C(C(=O)O)C21 (stereo not shown) shows MIC equal to > 100 µg/mL

The compound listed as c1cc2nc3c(N4CCCC4)cc(N4CCCC4)cc3[s+]c2cc1N1C2CCCC1CC2 shows MIC equal to 25 µg/mL

The compound listed as C1=CCN(c2ccc3nc4ccc(N5CC=CC5)cc4[s+]c3c2)C1 shows MIC equal to > 100 µg/mL

The compound listed as c1ccc2c(c1)Sc1ccccc1N2c1ccc2nc3ccc(N4C5CCCC4CC5)cc3[s+]c2c1 shows MIC equal to > 100 µg/mL

The compound listed as c1cc2nc3c(N4CCSC4)cc(N4CCCC4)cc3[s+]c2cc1N1CCCC1 shows MIC equal to > 100 µg/mL

The compound listed as CC(C)(C)OC(=O)N1CCCN(c2ccc3nc4ccc(N5CCCN(C(=O)OC(C)(C)C)CC5)cc4[s+]c3c2)CC1 shows MIC equal to > 100 µg/mL

The compound listed as c1cc2nc3ccc(N4CCCNCC4)cc3[s+]c2cc1N1CCCNCC1 shows MIC equal to > 100 µg/mL

The compound listed as CC1(C)C2CN(c3cc(N4CC5C(C4)C5(C)C)c4nc5ccc(N6CCCC6)cc5[s+]c4c3)CC21 (stereo not shown) shows MIC equal to > 100 µg/mL

The compound listed as c1cc2nc3ccc(N4CCNC4)cc3[s+]c2cc1N1CCNC1 shows MIC equal to > 100 µg/mL

The compound listed as CC1(C)C2CN(c3ccc4nc5c(N6CC7C(C6)C7(C)C)cc(N6CCCC6)cc5[s+]c4c3)CC21 (stereo not shown) shows MIC equal to 100 µg/mL

The compound listed as COC(=O)C1C2C(CN1c1cc(N3CCCC3)cc3[s+]c4cc(N5CCCC5)ccc4nc13)C2(C)C (stereo not shown) shows MIC equal to 12.5 µg/mL
